Parameter MFI: see the listing below.
target: 人SIRPα受体 on CHO cells (CHO-huSIRPα) (human) (UniProt P78324); assay: flow cytometry, hybridoma supernatant on CHO-huSIRPα cells, PE anti-mouse IgG Fc
assayEndpoint: MFI (MFI)

INSERT INTO results (binder, assayendpoint, resultunit, reading) VALUES
  ('36D6 (antibody, V domains shown, also called 抗SIRPα抗体36D6) VH: EVQLQESGPELKKPGETVKISCKASGYTFTKYGMNWVKQAPGKGLKWLAWINTDTGEAKYSDDFKGRFAFSLETSASIVYLQINNLKNEDTATYFCARGESYSNYVRFVYWGQGTTVTVSS VL: DIVMTQSHKFMSTSVGDRVSITCKASQDVNTAVAWYQQKAGHSPKLLIYWTSTRHTGVPDRFTGSGSGTDYTLTISSVQAEDLTLYYCQQHYSTPWTFGGGTKLEIK', 'MFI', 'MFI', 9270),
  ('57B10 (antibody, V domains shown, also called 抗SIRPα抗体57B10) VH: EVKLQESGAELVRSGASVKMSCKASGYTFTSYNMHWIKQTPGQGLEWIGYIYPGNGATNYNQKFKGKATLTADTSSSTAYMQISSLTSEDSAVYFCARNYDYYFYTMDYWGQGTTVTVSS VL: DIVLTQSTKFMSTSVGDRVSITCKASQDVSTAVAWYQQKPGQSPKLLIYSASYRYTGVPDRFTGSGSRTDFTFTISSVQAEDLAVFYCQQHFSAPLTFGAGTKLELK', 'MFI', 'MFI', 18500),
  ('40F3 (antibody, V domains shown, also called 抗SIRPα抗体40F3) VH: QVQLQQPGAELGKPGASVKLSCKASGYTFSSYYIYWLKQRPGQGLEWIGGINPSNDDTHLTEKFKSKATLIADRSSSTAYIQLSSLTSEDSAVYYCTRSYYANSWFAYWGQGTLVTVSA VL: DIVLTQSPLSLPVSLGDQASISCRSSQTIVHSNGNTYLAWYLQKPGQSPKLLIYKVSNRFSGVPDRFSGSGSGTEFTLKISRVEAEDLGVYYCFQGSHVPYTFGGGTKLEIK', 'MFI', 'MFI', 17200);
